System: RPMI-8226 leukemia
test details: NCI-60 one-dose screen, 48 h (100 = growth as untreated, 0 = no growth, -100 = all killed)
stated conditions: 10 µM unless noted
About 83,000 compounds went through this panel and 20% of them were active in at least one assay; those are over-represented in the sample as a whole.
Threshold rule: growth greater than or equal to 60% is 1 (yes); below that, 0 (no).

{"columns": ["test smiles", "class name"],
 "data": [
  ["Cc1cccc(C)c1NC(=O)CSC(=S)N1CCN(CCOCCO)CC1", "1 (yes)"]
]}

Input line: Item COc1cc2ncnc(Nc3ccc(OCc4cccc(F)c4)c(Cl)c3)c2cc1NC(=O)C1CCCC1 with growth of 60% or above?
Output line: 1 (yes)

Input line: What about Cn1cc(-c2csc(-c3cn(CCNC(=O)OC(C)(C)C)c4ccc(F)cc34)n2)c2cccnc21 ?
Output line: 0 (no)

Input line: What about COc1ccc(NC(=O)c2ccc3c(c2)nc(-c2cc4ccccc4[nH]c2=O)n3-c2cc(C(C)(C)C)[nH]n2)cc1 ?
Output line: 1 (yes)

Input line: What about CCOc1ccc(NC(=O)c2ccccc2-c2ccccc2C(=O)O)cc1 ?
Output line: 1 (yes)

Input line: What about Cn1cc(-c2csc(-c3c[nH]c4ccccc34)n2)c2cccnc21 ?
Output line: 0 (no)

Input line: What about CC(C)=CCC/C(C)=C/CC/C(C)=C/CC/C(C)=C/CSC[C@H](NC(=O)CCCCCN1CCN(C)CC1)C(=O)NC1CCCCC1 ?
Output line: 1 (yes)

Input line: What about Brc1ccc2[nH]cc(-c3nc(-c4c[nH]c5ncccc45)cs3)c2c1 ?
Output line: 0 (no)
